For each entry below, report its melting point value.

COc1ccc(/C=N/NC(=O)CNC(=O)Cn2c(=O)[nH]c3ccccc3c2=O)cc1 :: 290 to 292 °C
O=C(Cn1c(=O)[nH]c2ccccc2c1=O)NCC(=O)N/N=C/c1ccccc1 :: 325 °C
O=C(Cn1c(=O)[nH]c2ccccc2c1=O)N1CCCCC1 :: 204 °C
NNC(=O)CNC(=O)Cn1c(=O)[nH]c2ccccc2c1=O :: 296 to 298 °C

Could you tell me melting point for each of these compounds? They are listed below.
1. O=C(Cn1c(=O)[nH]c2ccccc2c1=O)N1CCOCC1
2. Cc1cc(C)n(C(=O)CNC(=O)Cn2c(=O)[nH]c3ccccc3c2=O)n1
3. CN(C)C(=O)Cn1c(=O)[nH]c2ccccc2c1=O

Result ::
254 to 255 °C
284 to 286 °C
218 to 220 °C

Could you tell me melting point for each of these compounds? They are listed below.
1. O=C(Cn1c(=O)[nH]c2ccccc2c1=O)NCC(=O)NNC(=S)Nc1ccccc1
2. O=C(Cn1c(=O)[nH]c2ccccc2c1=O)NCc1ccccc1

Result ::
287 to 290 °C
298 to 299 °C

---

Target: VEGFR-2 (Homo sapiens, UniProt P35968)
Sequence (P35968 20-1356): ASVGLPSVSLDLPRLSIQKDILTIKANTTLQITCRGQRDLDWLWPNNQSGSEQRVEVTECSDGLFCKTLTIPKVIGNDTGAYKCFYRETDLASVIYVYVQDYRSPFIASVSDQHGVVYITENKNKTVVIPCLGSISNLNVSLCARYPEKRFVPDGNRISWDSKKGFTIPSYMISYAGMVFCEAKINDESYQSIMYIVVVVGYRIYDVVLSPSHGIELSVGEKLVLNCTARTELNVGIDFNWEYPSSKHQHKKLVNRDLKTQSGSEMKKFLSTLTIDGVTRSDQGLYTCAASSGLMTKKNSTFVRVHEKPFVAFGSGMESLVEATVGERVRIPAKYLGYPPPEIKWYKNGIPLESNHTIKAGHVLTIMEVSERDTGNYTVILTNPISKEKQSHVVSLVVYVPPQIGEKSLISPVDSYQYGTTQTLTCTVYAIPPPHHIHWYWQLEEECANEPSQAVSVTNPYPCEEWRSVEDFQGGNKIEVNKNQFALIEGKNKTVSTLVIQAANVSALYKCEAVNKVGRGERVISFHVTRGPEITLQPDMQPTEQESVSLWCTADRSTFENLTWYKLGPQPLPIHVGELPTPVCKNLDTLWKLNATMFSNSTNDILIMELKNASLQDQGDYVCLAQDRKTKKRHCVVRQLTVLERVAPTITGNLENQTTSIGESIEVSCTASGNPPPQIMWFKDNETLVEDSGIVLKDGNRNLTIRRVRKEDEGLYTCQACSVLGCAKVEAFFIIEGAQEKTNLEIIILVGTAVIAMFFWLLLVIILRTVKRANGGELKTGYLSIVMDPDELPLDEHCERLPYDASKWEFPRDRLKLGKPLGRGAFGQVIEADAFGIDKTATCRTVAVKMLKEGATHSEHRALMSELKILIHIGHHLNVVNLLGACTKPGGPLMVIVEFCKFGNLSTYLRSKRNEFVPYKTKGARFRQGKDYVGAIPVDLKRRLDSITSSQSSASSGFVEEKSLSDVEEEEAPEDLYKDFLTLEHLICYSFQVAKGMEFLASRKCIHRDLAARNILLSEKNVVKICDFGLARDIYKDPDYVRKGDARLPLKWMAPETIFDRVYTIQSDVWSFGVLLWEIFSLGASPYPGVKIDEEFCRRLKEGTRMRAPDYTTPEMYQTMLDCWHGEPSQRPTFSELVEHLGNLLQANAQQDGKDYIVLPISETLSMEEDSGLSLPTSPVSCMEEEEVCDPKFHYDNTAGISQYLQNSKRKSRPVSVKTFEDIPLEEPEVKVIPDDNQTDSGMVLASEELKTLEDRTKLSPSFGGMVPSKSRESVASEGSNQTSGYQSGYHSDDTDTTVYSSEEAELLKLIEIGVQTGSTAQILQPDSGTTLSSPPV
Test: In vitro VEGFR-2 tyrosine kinase inhibition assay (BPS KDR Assay Kit)
Settings: conc 0.01 (unit not given)
Tick t if VEGFR-2 %inh is 30% or greater. Tick f if VEGFR-2 %inh is less than 30%.

Query :: Test whether the compound O=C(Cn1c(=O)[nH]c2ccccc2c1=O)NC1CCCCC1 records VEGFR-2 %inh of 30% or higher.
Result :: t

Query :: Test whether the compound Cc1cc(C)n(C(=O)CNC(=O)Cn2c(=O)[nH]c3ccccc3c2=O)n1 records VEGFR-2 %inh of 30% or higher.
Result :: f

Query :: Test whether the compound O=C(Cn1c(=O)[nH]c2ccccc2c1=O)N1CCOCC1 records VEGFR-2 %inh of 30% or higher.
Result :: f

Query :: Test whether the compound O=C(Cn1c(=O)[nH]c2ccccc2c1=O)NCC(=O)NN=C1CCCCC1 records VEGFR-2 %inh of 30% or higher.
Result :: t

Query :: Test whether the compound O=C(Cn1c(=O)[nH]c2ccccc2c1=O)NCc1n[nH]c(=S)o1 records VEGFR-2 %inh of 30% or higher.
Result :: f

Query :: Test whether the compound O=C(Cn1c(=O)[nH]c2ccccc2c1=O)NCC(=O)N/N=C/c1ccc([N+](=O)[O-])cc1 records VEGFR-2 %inh of 30% or higher.
Result :: t

---

Molecular target: c-Met (Homo sapiens, UniProt P08581)
Sequence (P08581 25-1390): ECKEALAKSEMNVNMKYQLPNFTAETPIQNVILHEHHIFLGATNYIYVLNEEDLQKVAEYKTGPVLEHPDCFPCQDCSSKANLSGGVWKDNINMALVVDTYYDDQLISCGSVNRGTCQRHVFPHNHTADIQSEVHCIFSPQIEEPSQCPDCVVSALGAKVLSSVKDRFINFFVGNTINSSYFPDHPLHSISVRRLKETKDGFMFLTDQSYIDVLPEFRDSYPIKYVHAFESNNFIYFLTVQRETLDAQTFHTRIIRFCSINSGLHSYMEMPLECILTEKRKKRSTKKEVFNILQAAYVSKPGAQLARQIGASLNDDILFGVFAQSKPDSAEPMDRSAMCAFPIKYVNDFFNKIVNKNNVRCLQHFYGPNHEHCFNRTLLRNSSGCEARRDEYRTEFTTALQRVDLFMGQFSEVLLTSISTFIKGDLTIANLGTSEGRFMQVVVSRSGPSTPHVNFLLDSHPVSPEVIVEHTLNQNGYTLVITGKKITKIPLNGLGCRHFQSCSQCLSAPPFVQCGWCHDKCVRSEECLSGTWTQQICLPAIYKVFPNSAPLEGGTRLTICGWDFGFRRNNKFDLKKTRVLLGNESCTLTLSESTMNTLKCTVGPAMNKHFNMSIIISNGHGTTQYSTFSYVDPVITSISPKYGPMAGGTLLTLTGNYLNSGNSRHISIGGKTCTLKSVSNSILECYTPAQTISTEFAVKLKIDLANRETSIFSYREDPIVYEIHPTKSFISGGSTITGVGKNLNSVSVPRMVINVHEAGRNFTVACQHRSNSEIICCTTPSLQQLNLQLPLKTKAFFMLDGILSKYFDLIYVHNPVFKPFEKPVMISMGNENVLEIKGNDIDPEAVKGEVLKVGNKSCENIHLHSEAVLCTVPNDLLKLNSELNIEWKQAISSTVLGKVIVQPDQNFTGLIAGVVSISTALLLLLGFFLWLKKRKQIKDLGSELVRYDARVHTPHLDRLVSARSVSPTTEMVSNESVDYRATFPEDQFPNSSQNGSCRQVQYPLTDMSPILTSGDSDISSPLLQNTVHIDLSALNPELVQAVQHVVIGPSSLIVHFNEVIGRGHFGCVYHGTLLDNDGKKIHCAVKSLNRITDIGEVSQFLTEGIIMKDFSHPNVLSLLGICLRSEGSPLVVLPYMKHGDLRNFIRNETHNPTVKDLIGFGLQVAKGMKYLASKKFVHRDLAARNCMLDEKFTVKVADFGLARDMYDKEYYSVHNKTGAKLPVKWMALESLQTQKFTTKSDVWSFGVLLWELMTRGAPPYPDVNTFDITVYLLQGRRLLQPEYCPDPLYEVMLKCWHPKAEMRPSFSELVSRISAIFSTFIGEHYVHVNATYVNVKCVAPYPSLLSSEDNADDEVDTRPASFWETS
Assay: In vitro c-Met tyrosine kinase inhibition assay
Conditions: conc 1 (unit not given)
Tick t if c-Met %inh is 70% or greater. Tick f if c-Met %inh is less than 70%.

Worked set:
O=C(Cn1c(=O)[nH]c2ccccc2c1=O)NC1CCCCC1 [Compound 2c] :: t
Cc1cc(C)n(C(=O)CNC(=O)Cn2c(=O)[nH]c3ccccc3c2=O)n1 [Compound 4g] :: f
O=C(Cn1c(=O)[nH]c2ccccc2c1=O)NCC(=O)N/N=C/c1ccc([N+](=O)[O-])cc1 [Compound 4b] :: t

Could you now consider this next compound?
Query :: Test whether the compound O=C(Cn1c(=O)[nH]c2ccccc2c1=O)NCC(=O)NN=C1CCCCC1 [Compound 4e] records c-Met %inh of 70% or higher.
Result :: t

---

For each entry below, report its c-Met %inh value.
Target: c-Met (Homo sapiens)
Test: In vitro c-Met tyrosine kinase inhibition assay
Conditions: conc 0.01 (unit not given)
Give bare numbers, in %.

O=C(Cn1c(=O)[nH]c2ccccc2c1=O)NC1CCCCC1 :: 27.36
O=C(Cn1c(=O)[nH]c2ccccc2c1=O)N1CCOCC1 :: 22.84
Cc1cc(C)n(C(=O)CNC(=O)Cn2c(=O)[nH]c3ccccc3c2=O)n1 :: 20.56
O=C(Cn1c(=O)[nH]c2ccccc2c1=O)NCC(=O)NN=C1CCCCC1 :: 28.94
O=C(Cn1c(=O)[nH]c2ccccc2c1=O)NCC(=O)N/N=C/c1ccc([N+](=O)[O-])cc1 :: 27.49

Could you now look at the following compound, please?
Query :: Specify measured c-Met %inh for O=C(Cn1c(=O)[nH]c2ccccc2c1=O)NCc1n[nH]c(=S)o1 .
Result :: 17.87
